- Test system: H9-ALB-GFP/AFP-Tomato (dual clone 1) derived hepatocytes
- assay.notes: RNA-Seq of ES-derived hepatocytes treated with Stauprimide
- Assay type: cell-based, human
- run.parameters: dual clone 1 ES-derived hepatocytes (CDI), 72 hrs
readout.label: CYP2D6 RNA-Seq expression (TPM)

* CO[C@@H]1[C@H](N(C)C(=O)c2ccccc2)C[C@H]2O[C@]1(C)n1c3ccccc3c3c4c(c5c6ccccc6n2c5c31)C(=O)NC4=O [Stauprimide] | 0
